These measurements were taken from patent US20190330346A1.

ASSAY_TARGET: T1, His-tagged human PD-1 protein (human, UniProt Q15116 25-170, limits assumed)
T1 construct: SPR analyte; also called his-tagged antigen PD-1; not shown: His tag
T1 sequence (Q15116 25-170 limits assumed): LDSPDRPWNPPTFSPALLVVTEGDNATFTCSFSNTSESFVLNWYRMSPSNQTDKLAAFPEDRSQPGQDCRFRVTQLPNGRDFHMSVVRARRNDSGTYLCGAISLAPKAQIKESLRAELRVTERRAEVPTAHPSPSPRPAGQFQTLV
ASSAY_DETAILS: SPR (Biacore T200); IgG captured by anti-human Fc gamma, His-tagged human PD-1 as analyte, 1:1 model
Listing of entries alongside the reported kon.
MEASUREMENT_NAME: kon (M⁻¹ s⁻¹)

BINDER | MEASUREMENT_NAME | RESULT
PD1-BM-min (IgG) (antibody, V domains shown, Full-length humanized IgG from HEK293 cells) VH: EVQLVESGGGLVQPGGSLRLSCAASGFVFSRYDMAWVRQAPGKGLEWVSFISGGGSNTYYPDTVKGRFTISRDNSKNTLYLQMNSLRAEDTAVYYCISPYYYAMEYWGQGTTVTVSS VL: DIQMTQSPSSVSASVGDRVTITCKASQDVDTAVAWYQQKPGKAPKLLIYWASTRHTGVPSRFSGSGSGTDFTLTISSLQPEDFATYYCQQYSTFPWTFGGGTKVEIKR | kon | 279000
PD1-BM Ab (IgG) (antibody, V domains shown, Full-length humanized IgG from HEK293 cells) VH: EVQLVESGGGLVQPGGSLRLSCAASGFVFSRYDMAWVRQTPGKGLEWVAFISGGGSNTYYPDTVKGRFTISRDNSKNTLYLQMNSLRAEDTAVYYCISPYYYAMEYWGQGTTVTVSS VL: DIQMTQSPSSISTSVGDRVTITCKASQDVDTAVAWYQQKPGKSPKLLIHWASTRHTGVPSRFSGSGSGTDFTLTLSSVQPEDLADYFCQQYSTFPWTFGGGTKLEIKR | kon | 241000
AS05617 (IgG) (antibody, V domains shown, Full-length humanized IgG from HEK293 cells) VH: EVQLVESGGGLVQPGGSLRLSCAASGFVFSRYDMAWVRQTPGKGLEWVSFISGGGSNTYYPDTVKGRFTISRDNSKNTLYLQMNSLRAEDTAVYYCISPYYYAMEYWGQGTTVTVSS VL: DIQMTQSPSSISTSVGDRVTITCKASQDVDTAVAWYQQKPGKSPKLLIYWASTRHTGVPSRFSGSGSGTDFTLTISSLQPEDFADYFCQQYSTFPWTFGGGTKVEIKR | kon | 183000
chimeric IgG (antibody, V domains shown, Full-length IgG from HEK293-6E cells; also called murine-human chimeric antibody derived from PD1#3) VH: EVQLVESGGDLVKPGGSLKLSCAASGFVFSRYDMAWVRQTPEKRLEWVAFISGGGSNTYYPDTVKGRFTISRDNAKNTLYLQMTSLKSEDTAVYYCISPYYYAMEYWGQGTSVTVSS VL: DIVMTQSHKFISTSVGDRVSITCKASQDVDTAVAWYQQKPGQSPKLLIHWASTRHTGVPDRFTGGGSGTDFTLTLSNVQSEDLADYFCQQYSTFPWTFGGGTRLEIKR | kon | 265000
